system: HL-60(TB) leukemia; assay: NCI tumour cell line growth inhibition, 48 h
Items are presented alongside their recorded TGI.

Documented TGI of COc1ccc2n[se]nc2c1 : > 100 µM

Documented TGI of Cc1ccc(S(=O)(=O)N/N=C/c2c(O)ccc3ccccc23)cc1 : > 100 µM

Documented TGI of C=CCNC(=O)NC(=O)CSC1=NNC2(C(=O)N1)c1ccccc1-c1ccccc12 : > 10 µM

Documented TGI of COc1ccc(C(=O)c2cc(OC)c(OC)c(OC)c2)cc1OC(=O)CCl : < 0.025 µM

Documented TGI of CCc1c2c([nH]c(=S)c1C#N)CCC2 : > 100 µM

// moving on: another record for TGI
Documented TGI of CN1CCc2[nH]c3ccccc3c2C1 : > 100 µM
